Each entry below lists one item and its recorded inhibition in vivo at 100 mg/kg value.
- System: Mus musculus
- assay-procedure: Anti-inflammatory activity in Swiss albino Mus musculus (mouse) assessed as inhibition of carrageenan-induced paw edema at 100 mg/kg, po administered 60 min prior to crrageenan-challenge measured at 270 min relative to control
- Format: functional
readout-name: inhibition in vivo at 100 mg/kg (%)

In [3]: df
Out[3]:
                                        mol                     readout_name  quantitative_result
0  COc1ccc(-c2ccc(=O)n(CCN3CCN(c4ccc(F)cc4)CC3)n2)cc1  inhibition in vivo at 100 mg/kg                 22.9
1  O=c1ccc(-c2ccc(Cl)cc2)nn1CCN1CCN(c2ccc(F)cc2)CC1  inhibition in vivo at 100 mg/kg                 35.3
2  COc1ccc(-c2ccc(=O)n(CCN3CCN(c4ccc(OC)cc4)CC3)n2)cc1  inhibition in vivo at 100 mg/kg                 13.6
3  COc1ccc(-c2ccc(=O)n(CCN3CCN(c4ccc(Cl)cc4)CC3)n2)cc1  inhibition in vivo at 100 mg/kg                 27.5
4  COc1ccc(N2CCN(CCn3nc(-c4ccc(Cl)cc4)ccc3=O)CC2)cc1  inhibition in vivo at 100 mg/kg                 18.5
5  O=c1ccc(-c2ccccc2)nn1CCN1CCN(c2ccc(Cl)cc2)CC1  inhibition in vivo at 100 mg/kg                 14.8
6  O=c1ccc(-c2ccccc2)nn1CCN1CCN(c2ccccc2)CC1  inhibition in vivo at 100 mg/kg                  6.4
7  O=c1ccc(-c2ccc(Cl)cc2)nn1CCN1CCN(c2ccccc2)CC1  inhibition in vivo at 100 mg/kg                  7.4
8  O=c1ccc(-c2ccccc2)nn1CCN1CCN(c2ccc(F)cc2)CC1  inhibition in vivo at 100 mg/kg                 29.9
9  O=c1ccc(-c2ccc(Cl)cc2)nn1CCN1CCN(c2ccc(Cl)cc2)CC1  inhibition in vivo at 100 mg/kg                   31
